# measurement.notes: Quantitative High-Throughput drug screen in 47 multiple myeloma cell lines against the NCATS MIPE library collection: KMS34_JCRB cell viability assay (AID 1918985); note: nearly all actives have a fitted effect of over 40% in size
# condition.description: KMS34 myeloma viability, CellTiter-Glo ATP luminescence, 48 h; series mostly up to 45.8 µM
Records with an inconclusive call do not appear. The source made the active and inactive calls. Calls come from the whole dose curve; as a rule, active = well fitted cell-killing curve with a large enough effect; inconclusive = small, poorly fitted or top-dose-only effect, or effect the other way; inactive = no such curve, though single readings can be large or run the other way.
Hi! Could you answer with just one of these? 1 (yes) = active, 0 (no) = inactive

Some solved cases for reference:
compound=Cc1cc2c(C(C)C)c(O)c(O)c(C=O)c2c(O)c1-c1c(C)cc2c(C(C)C)c(O)c(O)c(C=O)c2c1O label="1 (yes)"
compound=CO[C@@H]1[C@H](N(C)C(=O)c2ccccc2)C[C@H]2O[C@]1(C)n1c3ccccc3c3c4c(c5c6ccccc6n2c5c31)C(=O)NC4 label="1 (yes)"
compound=Cc1cc(SCc2sc(-c3ccc(C(F)(F)F)cc3)nc2C)ccc1OCC(=O)O label="0 (no)"
compound=Cc1cc([C@@H](C)Nc2ccccc2C(=O)O)c2nc(N3CCOCC3)cc(=O)n2c1 label="1 (yes)"
compound=C#Cc1cccc(Nc2ncnc3cc(OCCOC)c(OCCOC)cc23)c1 label="1 (yes)"
compound="O=C(O)COCCN1CCN(C(c2ccccc2)c2ccc(Cl)cc2)CC1 (stereo not drawn)" label="0 (no)"
compound="CCN(CC)CCCC(C)Nc1nc(C)cc(Nc2ccc3nc(C)cc(N)c3c2)n1 (stereo not drawn)" label="0 (no)"
compound=O=C(C=Cc1ccc(/C=C/C(=O)Nc2ccc(C3=NCCN3)cc2)cc1)Nc1ccc(C2=NCCN2)cc1 label="0 (no)"

Next item in the queue.
In: In this assay, the call recorded for CC(C)NCC(O)COc1ccc(COCCOC(C)C)cc1 (stereo not drawn) was what?
Out: 0 (no)
